Molecular target: MAPKAP-K2 (Homo sapiens)
Sequence (P49137 whole entry): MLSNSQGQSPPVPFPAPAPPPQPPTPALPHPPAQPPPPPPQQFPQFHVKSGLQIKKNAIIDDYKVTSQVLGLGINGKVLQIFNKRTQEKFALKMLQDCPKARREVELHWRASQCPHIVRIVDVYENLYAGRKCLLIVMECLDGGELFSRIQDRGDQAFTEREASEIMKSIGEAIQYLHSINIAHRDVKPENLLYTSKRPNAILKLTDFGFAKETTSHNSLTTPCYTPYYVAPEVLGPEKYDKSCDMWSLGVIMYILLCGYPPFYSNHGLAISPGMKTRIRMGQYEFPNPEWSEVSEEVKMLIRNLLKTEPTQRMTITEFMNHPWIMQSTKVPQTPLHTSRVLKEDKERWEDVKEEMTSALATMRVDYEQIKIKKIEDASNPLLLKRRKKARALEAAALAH
Test: MAPKAP-K2 enzyme activity inhibition (33P-ATP filter plate kinase assay); note: key: +: active; ++: more active; +++: very active
Assay type: biochemical
Conditions: MAPKAP-K2 inhibitory activity; assays conducted at typically 1-100 μM
Quantity Name: activity (efficacy against MAPKAP-K2)

Example compounds with recorded activity (efficacy against MAPKAP-K2):
| Compound | Test System | activity (efficacy against MAPKAP-K2) |
| --- | --- | --- |
| C=CCc1c(N[C@H]2CC[C@H](N)CC2)nc2ccnn2c1Nc1ccccc1Cl | MAPKAP-K2 (Homo sapiens) | +++ |
| Cc1c(N[C@H]2CC[C@H](N)CC2)nc2ccnn2c1Nc1cccc(Br)c1 | MAPKAP-K2 (Homo sapiens) | +++ |
| Cc1c(NC2CCCNC2)nc2ccnn2c1Nc1ccc(F)c(Cl)c1 (centres unmarked) [Compound 191] | MAPKAP-K2 (Homo sapiens) | +++ |
| Cc1c(N[C@H]2CC[C@H](N)CC2)nc2ccnn2c1Nc1ccc(-c2ccsc2C=O)cc1 | MAPKAP-K2 (Homo sapiens) | ++ |
| Cc1c(N[C@H]2CC[C@H](N)CC2)nc2ccnn2c1Nc1ccc(-c2ccc(Cl)cc2)cc1 | MAPKAP-K2 (Homo sapiens) | +++ |
| Cc1c(N[C@H]2CC[C@H](N)CC2)nc2ccnn2c1Nc1ccc(-c2ccccc2F)cc1 | MAPKAP-K2 (Homo sapiens) | +++ |
| CCOc1ccc(Nc2c(C)c(N(CC)C3CCCNC3)nc3ccnn23)cc1 (centres unmarked) | MAPKAP-K2 (Homo sapiens) | + |
| CCOc1ccc(Nc2c(-c3ccc(OC)cc3)c(N[C@H]3CC[C@H](N)CC3)nc3ccnn23)cc1 | MAPKAP-K2 (Homo sapiens) | +++ |

Q) Using the record for Cc1c(N[C@H]2CC[C@H](N)CC2)nc2ccnn2c1Nc1ccc(-c2ccc(N(C)C)cc2)cc1 , report its activity (efficacy against MAPKAP-K2).
A) +++

Q) Entry under review: CCc1c(N[C@H]2CC[C@H](N)CC2)nc2ccnn2c1Nc1ccc(C)c(C)c1 . Reported activity (efficacy against MAPKAP-K2)?
A) +++

Q) Can you look up the measured activity (efficacy against MAPKAP-K2) of CCOc1ccc(Nc2c(C)c(N[C@H]3CC[C@H](N)CC3)nc3c(C(=O)Nc4ccccn4)cnn23)cc1 for me?
A) ++

Q) Can you look up the measured activity (efficacy against MAPKAP-K2) of Cc1c(N[C@H]2CC[C@H](N)CC2)nc2ccnn2c1Nc1ccc(-c2cccc(C#N)c2)cc1 for me?
A) +++

Q) Item under review: C=CCc1c(N[C@H]2CC[C@H](N)CC2)nc2ccnn2c1Nc1ccc(F)c(Cl)c1 . Reported activity (efficacy against MAPKAP-K2)?
A) +++

Q) I would be grateful if you could share the reported activity (efficacy against MAPKAP-K2) for Cc1c(N[C@H]2CC[C@H](N)CC2)nc2ccnn2c1Nc1ccc(C(=O)c2ccccc2)cc1 .
A) +++

Q) Give its activity (efficacy against MAPKAP-K2) value. Item: NC1CCC(Nc2nc3ccnn3c(Nc3ccc(F)c(Cl)c3)c2-c2ccccc2)CC1 (centres unmarked)
A) +++

Q) Returns the measured activity (efficacy against MAPKAP-K2) for the input compound. Input: Cc1c(N[C@H]2CC[C@H](N)CC2)nc2ccnn2c1Nc1ccc(-c2cccc(N)c2)cc1
A) +++

Q) Form field: reported activity (efficacy against MAPKAP-K2) of CCc1c(N[C@H]2CC[C@H](N)CC2)nc2ccnn2c1Nc1ccc(F)c(Cl)c1
A) +++
